The origin of these recorded values is ChEMBL document CHEMBL2202980.

Test: Cytotoxicity against MDCK cells after 48 hrs by MTT assay
Format: cell-based, Canis lupus familiaris
Conditions: dog, read-out: CTD50
Assign labels as follows, please: 1 for CC50 at 48 h below 200 µM; -1 for CC50 at 48 h equal to or exceeding 200 µM.

molecule: CC(N)C12CC3CC(CC(C3)C1)C2 (stereo not drawn)
cat: -1

# input For CC(=O)c1c(O)c(C)c(O)c2c1OC1=CC(=O)/C(=C(/C)Nc3cccc(F)c3)C(=O)[C@@]12C , is the recorded CC50 at 48 h below the cut-off of 200 µM?
# output 1

# input A record lists CC(=O)c1c(O)c(C)c(O)c2c1OC1=CC(=O)/C(=C(/C)NCCC(=O)O)C(=O)[C@]12C . Is its CC50 at 48 h below 200 µM?
# output -1

# input Lab log: compare recorded CC50 at 48 h with 200 µM; is it strictly lower for CC(=O)c1c(O)c(C)c(O)c2c1OC1=Cc3c(c(C)nn3-c3ccccc3)[C@@H](O)[C@]12C ?
# output 1
